B1: Pistol ribozyme (parent)
chain: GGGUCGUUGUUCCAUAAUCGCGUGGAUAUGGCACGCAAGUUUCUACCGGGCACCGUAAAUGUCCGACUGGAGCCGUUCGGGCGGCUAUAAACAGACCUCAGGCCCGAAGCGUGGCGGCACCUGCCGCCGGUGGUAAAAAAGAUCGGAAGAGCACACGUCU

# Variants of: B1
# experiment.notes: aptazyme ON/OFF ratio, guanine; higher = stronger switching; co-transcriptional cleavage with and without guanine
Consider the following variants; for each one, report its aptazyme ON/OFF ratio.
Answers are plain numbers.

- U7A U8A G9C U10A U11A C12A: 1.13
- U7A U8C G9C U10C C12U C13A: 1.04

Dear reader, for each entry below, please note its aptazyme ON/OFF ratio.
1. U10G U11C C12A
2. U7G U8G G9C U10A U11A C12A C13G

1.51
1.04

Reference for the values: the RNAGym collection of RNA variant scans (doi:10.1021/acssynbio.7b00057)
